Field: melting point. Provide a value for each of the molecules that follow.

Query: So what does the record say about melting point for O=C(O)COc1ccc(SCc2ccc(-c3ccc(C(F)(F)F)cc3)cc2)c2c1CCC2 ?
Response: 158 to 159 °C

Query: Fill blank: measured melting point of the molecule Cc1cc(SCc2ccc(OCc3ccc(F)cc3F)cc2)ccc1OCC(=O)O is ____.
Response: 139 to 141 °C

Query: What does the data say about its melting point? Entry: O=C(O)COc1ccc(SCc2cc(-c3ccc(C(F)(F)F)cc3)on2)c2c1CCCO2
Response: 171 to 173 °C

Query: Quick one: melting point for COc1cc(OCC(=O)O)c(C)cc1SCc1ccc(-c2c(C)cc(C)cc2C)cc1 ?
Response: 141 °C

Query: Fill blank: measured melting point of the molecule O=C(O)COc1ccc(SCc2cc(-c3ccc(C(F)(F)F)cc3)no2)c2c1CCC2 is ____.
Response: 166 to 168 °C

Query: Fill blank: measured melting point of the molecule COc1ccc(COc2ccc(CSc3ccc(OCC(=O)O)c(C)c3)cc2)cc1 is ____.
Response: 150 to 152 °C

Query: Given the entry COc1cc(OCC(=O)O)c(C)cc1SCc1ccc(-c2ccc(C(F)(F)F)cc2)nc1 , report its measured melting point.
Response: 203 °C (dec.)

Query: Any idea what melting point was measured for O=C(O)COc1ccc(SCc2cc(-c3ccc(C(F)(F)F)cc3)on2)c2c1CCCC2 ?
Response: 167 to 170 °C

====

Can you tell me melting point for the items I'm about to list?

Query: // melting point lookup, key: O=C(O)COc1ccc(SCc2ccc(OCc3ccc(F)cc3F)cc2)c2c1CCC2
Response: 158 to 160 °C

Query: Recorded melting point for Cc1cc(SCc2ccc(OCc3cc(Cl)ccc3Cl)cc2)ccc1OCC(=O)O , please?
Response: 101 to 103 °C

Query: Given the molecule COc1cc(OCC(=O)O)c(C)cc1SCc1ccc(OCc2ccc(C(F)(F)F)cc2)cc1 , what is its reported melting point?
Response: 145 °C

Query: Entry Cc1cc(SCc2ccc(OCc3ccccn3)cc2)ccc1OCC(=O)O has what melting point?
Response: 150 °C

Query: GET /values?readout=melting point&item= O=C(O)COc1ccc(SCc2cc(-c3ccc(Cl)cc3)on2)c2c1CCC2
Response: 157 to 159 °C

Query: Any idea what melting point was measured for CC(C)(C)c1ccc(COc2ccc(CSc3ccc(OCC(=O)O)c4c3CCC4)cc2)cc1 ?
Response: 152 to 153 °C

Query: Could you share which melting point value was measured for O=C(O)COc1ccc(SCc2ccc(OCc3ccc(Cl)cc3Cl)cc2)c2c1CCC2 ?
Response: 149 to 150 °C

Query: Record request: melting point value, item CCCCc1cc(SCc2ccc(-c3ccc(C(F)(F)F)cc3)cc2)ccc1OCC(=O)O
Response: 155 to 157 °C

====

Assignment: determine reported EC50 for the given molecules.
- MEASUREMENT TARGET: hPPARα (Homo sapiens, UniProt Q07869)
- Sequence (Q07869 200-468 limits assumed): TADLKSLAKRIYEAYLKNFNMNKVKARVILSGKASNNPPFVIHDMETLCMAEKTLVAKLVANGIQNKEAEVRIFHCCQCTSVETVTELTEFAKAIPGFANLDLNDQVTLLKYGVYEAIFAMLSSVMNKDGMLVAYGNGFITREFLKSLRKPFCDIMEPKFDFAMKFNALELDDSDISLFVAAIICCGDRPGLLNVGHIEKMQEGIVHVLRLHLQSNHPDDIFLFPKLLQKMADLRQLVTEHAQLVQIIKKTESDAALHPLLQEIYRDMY
- EXPERIMENT NOTES: Transient transfection assay in HepG2 cells, Gal4-hPPARα chimeric receptor, luciferase reporter
- Assay type: cell-based
- REPORTED CONDITIONS: Hep G2-hAlpha EC50, 24 hours incubation; read-out: EC50α nM (Group)
- Excerpt: 1. Test A. Transient Transfections Assay using the HepG2 Hepatoma Cell Line. HepG2 cells were transiently transfected with an expression plasmids encoding hPPARα, hPPARβ or mPPARγ chimeric receptors and a reporter containing the yeast upstream activating sequence (UAS) upstream of the viral E1B promoter controlling a luciferase reporter gene. In addition, the plasmid pRSVβ-gal was used to control for transfection efficiency. […]

Query: GET /values?readout=EC50&system=hPPARα (Homo sapiens, UniProt Q07869)&item= O=C(O)COc1ccc(SCc2cc(-c3ccc(C(F)(F)F)cc3)on2)c2c1CCC2
Response: > 5000 nM

Query: For hPPARα (Homo sapiens, UniProt Q07869), provide EC50 of COc1cc(OCC(=O)O)c(C)cc1SCc1ccc(-c2cccc(C(F)(F)F)c2)cc1 please.
Response: < 300 nM

Query: # get_value(readout= EC50, system= hPPARα (Homo sapiens, UniProt Q07869)) for COc1cc(OCC(=O)O)c(C)cc1SCc1cccc(-c2ccc(C(F)(F)F)cc2)c1
Response: 300 to 500 nM

Query: What EC50 appears in the records for this molecule with hPPARα (Homo sapiens, UniProt Q07869)? Cc1cc(SCCc2ccc(-c3ccc(C(F)(F)F)cc3)cc2)ccc1OCC(=O)O
Response: 500 to 1000 nM

Each recorded value in this set is attributed to patent US6964983B2.
